Each entry below carries its reported t1/2.
- Experimental System: HLA-A*0301 (human)
- Assay Protocol: iTopia off-rate
Answer field: number only, no words.

Here is how some binders turned out for t1/2.
CIRRAKAVK [cdr2 331-339 CIRRAKAVK]: 6.47
VQTSRAAAK [cdr2 379-387 VQTSRAAAK]: 2.55
LQAQLSLER [cdr2 205-213 LQAQLSLER]: 0.99
KEIFSCIKK [cdr2 427-435 KEIFSCIKK]: 5.82
LTVPESHRK [cdr2 296-304 LTVPESHRK]: 1.53

Q: # return recorded t1/2 for entry QLGATGAYR [cdr2 236-244 QLGATGAYR]
Result: 0.92

Q: # return recorded t1/2 for entry TQYSALKVK [cdr2 351-359 TQYSALKVK]
Result: 1.48

Q: # return recorded t1/2 for entry SLAGSDIVK [cdr2 317-325 SLAGSDIVK]
Result: 0.88

Reference source for all entries: patent US20090208538A1
